Recorded values, source PubChem BioAssay (NCI).

tested on: MALME-3M melanoma; assay: NCI-60 one-dose screen, 48 h (100 = growth as untreated, 0 = no growth, -100 = all killed); settings: 10 µM unless noted
The panel holds about 83,000 compounds, 20% with a hit somewhere; the sample as a whole holds those more often.
As shown below, each of these compounds has a reported growth value.

compound: COC1CC2CCC(C)C(O)(O2)C(=O)C(=O)N2CCCCC2C(=O)OC(C(C)CC2CCC(O)C(OC)C2)CC(=O)C(C)C=C(C)C(O)C(OC)C(=O)C(C)CC(C)/C=C/C=C/C=C1C (stereo not drawn)
growth / %: 21.1

compound: Nc1ncc(-c2cnn(C3CCNCC3)c2)cc1-c1nc2cc(Cl)ccc2o1
growth / %: -92.5

compound: O=C(O)c1ccc(NC(=O)c2cccc(Nc3ccnc(C(F)(F)F)c3)c2)cc1
growth / %: 93.5

compound: Cc1ccc(NC(=O)COC(=O)c2ccc(S(=O)(=O)N3CCCCCC3)cc2)cc1
growth / %: 127

compound: CCOc1nc(-c2ccccc2)cc2c(O)c(-c3nnco3)[nH]c(=O)c12
growth / %: 59.9

compound: CC(C)c1nc(N(C)S(C)(=O)=O)nc(-c2ccc(F)cc2)c1/C=C/[C@@H](O)C[C@@H](O)CC(=O)O
growth / %: 104

compound: CCC(C)(C)C(=O)O[C@H]1C[C@@H](C)C=C2C=C[C@H](C)[C@H](CC[C@@H]3C[C@@H](O)CC(=O)O3)[C@H]21
growth / %: 94.1

compound: O=C(Nc1ccc(Cl)cc1Cl)Nc1ccc(-c2cccnc2)cc1N1CCC(CO)CC1
growth / %: 41.3

---

system: NCI-H226 lung; assay: NCI-60 one-dose screen, 48 h (100 = growth as untreated, 0 = no growth, -100 = all killed); settings: 10 µM unless noted
This is part of a sample that, as a whole, favours compounds with a hit. Of some 83,000 tested, about 20% had one in any assay.
// reported growth per item
observedProperty: growth (%)

smilesStr: CCSc1nnc2n(Cc3ccccc3)c(=O)c3c(C)c(C(N)=O)sc3n12
observedProperty: growth
observedMeasurement: 93.8
//
smilesStr: COc1ccc2c(c1)C(=O)c1c-2c(OCCN(C)C)nc2cc(OC)ccc12
observedProperty: growth
observedMeasurement: -25.7
//
smilesStr: CN(C)CCCN1c2nc3ccccc3cc2Sc2cc3ccccc3nc21
observedProperty: growth
observedMeasurement: 40.1
//
smilesStr: Nc1nonc1-c1nc2ccccc2n1CC(=O)Nc1ccc2c(c1)COC2=O
observedProperty: growth
observedMeasurement: 87.7
//
smilesStr: Cc1cc(C)n2nc(SCC(=O)Nc3sc4c(c3C(N)=O)CCC4)nc2n1
observedProperty: growth
observedMeasurement: 87.1
//
smilesStr: CCOC(Cc1c(N)[nH]c(=S)[nH]c1=O)OCC
observedProperty: growth
observedMeasurement: 96.8

---

test system: MDA-MB-231 breast; assay: NCI-60 one-dose screen, 48 h (100 = growth as untreated, 0 = no growth, -100 = all killed); settings: 10 µM unless noted
This is part of a sample that, as a whole, favours compounds with a hit. Of some 83,000 tested, about 20% had one in any assay.
Reported values of growth for individual entries
observedProperty: growth (%)

compound: CCOC(=O)c1c(C)c(C(=O)OCC)n(C)c1C
measurementTarget: MDA-MB-231 breast
observedProperty: growth
observedMeasurement: 85.6
--
compound: CCCCCCCC/C=C/CCCCCCCC1=NC(C)(C)CN1CC(C)O (stereo unspecified)
measurementTarget: MDA-MB-231 breast
observedProperty: growth
observedMeasurement: 30.5
--
compound: C=C(C)[C@H]1CC/C(C)=C/CC[C@]2(C)O[C@H]2CC/C(COC(C)=O)=C\C1=O
measurementTarget: MDA-MB-231 breast
observedProperty: growth
observedMeasurement: 98.4
--
compound: N#CCCCCCn1c2ccccc2c2c3c(c4c5ccccc5[nH]c4c21)C(=O)N(O)C3=O
measurementTarget: MDA-MB-231 breast
observedProperty: growth
observedMeasurement: 16.1
--
compound: O=C1N(C2CCCCC2)C(=O)N1C1CCCCC1
measurementTarget: MDA-MB-231 breast
observedProperty: growth
observedMeasurement: 64.3
--
compound: CCN1CCN(c2cc(-c3cn[nH]c3-c3cc(C)cc(OC)c3)nc(-c3cccnc3)n2)CC1
measurementTarget: MDA-MB-231 breast
observedProperty: growth
observedMeasurement: 58.6
--
compound: O=C1NCN(CCO)CN1
measurementTarget: MDA-MB-231 breast
observedProperty: growth
observedMeasurement: 125
--
compound: Cc1cc(NCCCNc2ccnc3cc(Cl)ccc23)nc(N2CCN(C)CC2)n1
measurementTarget: MDA-MB-231 breast
observedProperty: growth
observedMeasurement: 53.8
--
compound: O=C(NCCc1ccccc1)C1CCC(=O)N1Cc1ccc(Br)cc1 (stereo unspecified)
measurementTarget: MDA-MB-231 breast
observedProperty: growth
observedMeasurement: 114
--
compound: Cc1nn(-c2ccccc2)c2nc3c(nc12)C(=O)CCC3
measurementTarget: MDA-MB-231 breast
observedProperty: growth
observedMeasurement: 108
--
compound: CCOC(=O)/C(=C/c1ccccc1)C(=O)c1ccccc1
measurementTarget: MDA-MB-231 breast
observedProperty: growth
observedMeasurement: 81.4
